Cited source: ChEMBL document CHEMBL1146743

test system: 3Y1 cell line; experiment: Inhibitory activity against rat fibroblast (3Y1) cell line; assay type: functional, cell-based
The reader will find reported pIC50 values listed item by item below.
Would you please state pIC50, meaning minus log10 of the concentration in mol/L, as a bare number?

Here is how some molecules turned out for pIC50.
{"columns": ["chem-smiles", "assayed-system", "pIC50"],
 "data": [
  ["C1=C/CCC[n+]2cccc(c2)CCCCCCCCCCCC[n+]2cccc(c2)CCCCCC/1.O=C([O-])C(F)(F)F.O=C([O-])C(F)(F)F", "3Y1 cell line", 4.96],
  ["C1=C/CCCCCC[n+]2cccc(c2)CCCCCCCCCCCC[n+]2cccc(c2)CCCCCC/1.O=C([O-])C(F)(F)F.O=C([O-])C(F)(F)F", "3Y1 cell line", 5.37],
  ["C1=C/CCCCCC[n+]2cccc(c2)CCCCCCCCCCCCC[n+]2cccc(c2)CCCCCC/1.O=C([O-])C(F)(F)F.O=C([O-])C(F)(F)F", "3Y1 cell line", 5.49]
]}

Let us examine a further case.
The reported pIC50 of the molecule C1=C/CCCC[n+]2cccc(c2)CCCCCCCCCCCC[n+]2cccc(c2)CCCCCC/1.O=C([O-])C(F)(F)F.O=C([O-])C(F)(F)F was 5.14

---

molecular target: Histone deacetylase; assay: Inhibitory activity against histone deacetylase (HDAC); type: protein assay, Homo sapiens
value-kind: IC50 (µM)
// return numeric value only (unit: µM, not printed)

Here is how some molecules turned out for IC50.
{"columns": ["chem-smiles", "IC50 (µM)"],
 "data": [
  ["C1=C/CCCC[n+]2cccc(c2)CCCCCCCCCCCC[n+]2cccc(c2)CCCCCC/1.O=C([O-])C(F)(F)F.O=C([O-])C(F)(F)F", 61],
  ["C1=C/CCCCCC[n+]2cccc(c2)CCCCCCCCCCCCC[n+]2cccc(c2)CCCCCC/1.O=C([O-])C(F)(F)F.O=C([O-])C(F)(F)F", 30],
  ["C1=C/CCCCCC[n+]2cccc(c2)CCCCCCCCCCCC[n+]2cccc(c2)CCCCCC/1.O=C([O-])C(F)(F)F.O=C([O-])C(F)(F)F", 17]
]}

Let us examine a further case.
The reported IC50 of the molecule C1=C/CCC[n+]2cccc(c2)CCCCCCCCCCCC[n+]2cccc(c2)CCCCCC/1.O=C([O-])C(F)(F)F.O=C([O-])C(F)(F)F was 80
